For each entry below, report its inhibition value.
assay: M. tuberculosis H37Rv growth inhibitors, H37Rv strain (AID 1626);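 note: bacteria incubated seven days before Alamar blue readout; 0% = bacteria only wells and 100% = bacteria with antibiotic wells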
assay.conditions: active compounds read high, concentration not given here
Screen size: about 220,000 compounds; about 2,000 (0.91%) were called active. Not shown: some 2% with an inconclusive outcome. These entries were drawn from the full list. Entries with a potency or affinity are not part of this list.
Only the number, expressed in %, is required.

Query string: Which inhibition value belongs to CCOC(=O)c1ccc(NC(=O)CSc2nc3c(c(=O)n2CC)SC(C)C3)cc1 (configuration not stated) ?
Result string: 7.17

Query string: Can you check O=C(Nc1ccc(N2CCN(C(=O)c3ccccc3)CC2)cc1)c1ccc(Br)o1 next?
Result string: 19.7

Query string: Proceed to O=C(Nc1ccc(N2CCN(C(=O)c3ccco3)CC2)cc1)c1ccccc1
Result string: 7.16

Query string: Try the molecule O=C(O)CSC1=NC(=Nc2cccc(Cl)c2)C2(CCCCC2)N1c1ccccc1
Result string: 5.37

Query string: Consider next the molecule Brc1ccc(-c2c[n+]3c(n2-c2ccccc2)SCC3)cc1 in the same way.
Result string: 1.71

Query string: And the next one, COc1ccc(OCCOc2ccc(C)nc2[N+](=O)[O-])cc1 ?
Result string: 9.48

Query string: And then O=C(Nc1ccc(N2CCN(C(=O)c3ccc(Cl)cc3)CC2)cc1)c1cc2ccccc2o1 , what is it?
Result string: -12.4

Query string: Would you kindly repeat that for O=C(Nc1ccc(N2CCN(C(=O)c3ccc(Cl)cc3)CC2)cc1)c1ccc2c(c1)OCCO2 ?
Result string: -4.15

Query string: Repeat with Cc1ccc(C)c(NC(=O)C(Sc2ncnc3ccccc23)c2ccccc2)c1 (configuration not stated)
Result string: -1.19

Query string: What about this molecule? O=C(Nc1ccccc1Cl)c1csc(-c2cccnc2)n1
Result string: 2.6

Query string: What do you have for O=C(Nc1ccc(N2CCN(C(=O)c3ccccc3)CC2)cc1)c1cc2ccccc2o1 ?
Result string: 9.58

Query string: Follow-up entry: Cc1ccccc1OC(C)C(=O)NCc1cccnc1 (configuration not stated)
Result string: 1.38

Query string: Same question for COc1ccc2cc(C(=O)C3CCCN(C(=O)/C=C/c4ccccn4)C3)ccc2c1 (configuration not stated) please.
Result string: 1.13

Query string: Also COc1ccc(NC(=O)COC(=O)c2cc(SC)ccc2Cl)c(OC)c1 , if possible.
Result string: 10.1

Query string: Then this molecule: CCCC(=O)Nc1ccc(C(=O)NN=C(C2CC2)C2CC2)cc1
Result string: -2.7

Query string: Entry to check: Cc1cc(C)c2nc(N3CCC(C(=O)N4CCN(C(=O)c5ccco5)CC4)CC3)sc2c1
Result string: -2.47

Query string: What do you get for CCOC(=O)N1CCN(C(=O)c2ccccc2NC(=O)c2ccc(F)cc2)CC1 ?
Result string: 22.6

Query string: Same for CCC(C(=O)Nc1cc(Cl)c(OC)cc1OC)c1ccccc1 (configuration not stated)
Result string: -3.66

Query string: Subsequent entry: CC(C)C[C@H](NC(=O)c1nc[nH]c1C(=O)NCc1ccccc1)C(=O)OCc1ccccc1
Result string: -9.88

Query string: Check O=C(N/N=C1\CC2CC=CC12)c1ccc(Br)cc1 (configuration not stated) too.
Result string: -7.43

Query string: And then COc1ccc(C(C)(C)C)cc1NC(=O)COC(=O)c1ncc(Cl)c(Cl)c1Cl , what is it?
Result string: -2.28

Query string: Item: O=C(Nc1ccc(N2CCN(C(=O)c3ccco3)CC2)cc1)c1ccco1
Result string: -0.76
